All figures here come from the supplement of paper PMC10567573.

# protein stability index values compiled below
B1: C20orf112 (parent)
chain: YANGGLNYSYRGYGALSSNLQPPA

# Variants of: B1
# Protocol Summary: protein stability index of a GFP-peptide fusion (GPS, HEK-293T) (PSI 1-6); higher = more stable;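 note: lentivirally expressed fusions sorted by FACS into six bins by GFP to DsRed ratio, PSI derived from sequencing read proportions per bin multiplied by bin number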
# Run Conditions: c terminus: a fixed tail appended

# Mutation, protein stability index
measured = [
    ("Y13P", 2.04),
    ("G12K", 1.97),
    ("S18T", 2.05),
    ("N3G", 1.98),
    ("A24K", 2),
]
